Listing of recorded inhibition at 25 µM by entry.
Molecular target: Aβ1–42 (Homo sapiens)
Sequence (P05067 672-713): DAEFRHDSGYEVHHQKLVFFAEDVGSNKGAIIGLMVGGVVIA
Test: Inhibition of Cu2+-induced Aβ1–42 aggregation
Assay type: biochemical
Details: read-out: Inhibition of Aβ1–42 aggregation (%) Cu^2+-induced
Field format: number, assumed %, no unit text.

Example entries begin here.
COc1ccccc1CN(C)CCCOc1ccc(/C=C/C(=O)c2c(O)cc(OC)c(O)c2OC)cc1 [Compound 17a]: 91.1
COc1ccccc1CN(C)CCCOc1ccc(/C=C/C(=O)c2c(O)cc(OC)c(OC)c2OC)cc1: 66.2
COc1ccccc1CN(C)CCCCOc1ccc(/C=C/C(=O)c2c(O)cc(OC)c(OC)c2OC)cc1: 74.1
COc1cc(O)c(C(=O)/C=C/c2ccc(O)cc2)c(OC)c1O: 38.1
CCN(CCCOc1ccc(/C=C/C(=O)c2c(O)cc(OC)c(O)c2OC)cc1)Cc1ccccc1OC [Compound 17b]: 90.2

# query: inhibition at 25 µM of entry COc1ccccc1CN(C)CCCCCCOc1ccc(/C=C/C(=O)c2c(O)cc(OC)c(OC)c2OC)cc1
76.2

# query: inhibition at 25 µM of entry CCN(CCCCOc1ccc(/C=C/C(=O)c2c(O)cc(OC)c(O)c2OC)cc1)Cc1ccccc1OC [Compound 17d]
91.7

# query: inhibition at 25 µM of entry CCN(CC)CCCCOc1ccc(/C=C/C(=O)c2c(O)cc(OC)c(OC)c2OC)cc1
49.4
